Tested on: OVCAR-4 ovarian
protocol summary: NCI-60 one-dose screen, 48 h
condition details: 10 µM unless noted
About 83,000 compounds went through this panel and 20% of them were active in at least one assay; those are over-represented in the sample as a whole. The source made the active and inactive calls. How the source made its calls: active means growth percent below 10; inactive means the rest.
Tick one outcome: Y = active, N = inactive

input: Please share the test call associated with C=C1c2c(C)nn(-c3ccc(N)cc3)c2N(C)C23CC1C1(C)c4c(C)nn(-c5ccc(N)cc5)c4N(C)C(C)(CC12)C3 (configuration not stated) .
output: N

input: Please share the test call associated with `COc1ccc(-c2cc(-c3ccc(Nc4nc(Nc5ccccc5)nc(Nc5ccc(Cl)cc5)n4)cc3)nc(N)c2C#N)cc1` .
output: Y

input: Please share the test call associated with `CN1CCN(C(=O)[C@@]2(C)CC[C@]3(C)CC[C@]4(C)C(=CC[C@@H]5[C@@]6(C)C/C(=C/c7ccncc7)C(=O)C(C)(C)[C@@H]6CC[C@]54C)[C@@H]3C2)CC1` .
output: N

input: Please share the test call associated with `COc1ccc(-c2c(N)n[nH]c2-c2ccccc2O)cc1OC` .
output: N

input: Please share the test call associated with COc1ccc(C(=O)/C=C/C23c4ccccc4C(c4ccccc42)C2C(=O)NC(=O)C23)cc1 (configuration not stated) .
output: N

input: Please share the test call associated with `O=C(NCCN1CCC(O)CC1)c1cc2c(o1)C(=O)c1ccccc1C2=O` .
output: Y

input: Please share the test call associated with `C=C(C)[C@@H]1CC[C@]2(CO)CC[C@]3(C)[C@H](CC[C@@H]4[C@@]5(C)C=C(C#N)C(=O)C(C)(C)[C@@H]5CC[C@]43C)[C@@H]12` .
output: N

input: Please share the test call associated with `O=[N+]([O-])c1cccc(/C=C/c2ccccn2)c1` .
output: N

input: Please share the test call associated with `COc1cc2nc(Nc3ccc(F)cc3)nc(N)c2cc1OC` .
output: N

input: Please share the test call associated with `Cc1ccc(NSc2ccccc2[N+](=O)[O-])cc1` .
output: N

input: Please share the test call associated with `CCN(CC)N=Nc1nn(C(=O)Nc2ccc(Cc3ccccc3)cc2)c2ccc(Cl)cc12` .
output: N

input: Please share the test call associated with `Cc1nc(Nc2ccc(NC(=S)Nc3ccccc3)cc2)c2ccccc2n1` .
output: N

###

Test system: SK-MEL-28 melanoma
protocol summary: NCI-60 one-dose screen, 48 h (100 = growth as untreated, 0 = no growth, -100 = all killed)
condition details: 10 µM unless noted
Protocol: Growth inhibition of the SK-MEL-28 human tumor cell line is measured as a screen for anti-cancer activity. Cells are grown in 96 well plates and exposed to the test compound for 48 hours. Compounds are tested at a single concentration, which is 10^-5 M for most compounds. The reported endpoint is percent growth (GI% or GIPRCNT), where numbers from 0 - 100% represent growth inhibition, and numbers from -100% - 0 represent cell death. For example, a value of 40 represents 60% growth inhibition. […]
About 83,000 compounds went through this panel and 20% of them were active in at least one assay; those are over-represented in the sample as a whole.
parameter measured: growth (%)
Dear colleague, please return just the value in %, with no unit written.

input: Answer with the recorded growth of `CCCCCCCCc1cc[n+](CC(=O)c2ccc(Br)cc2)cc1` only.
output: 32.9

input: Answer with the recorded growth of `COc1cc(NC(=O)c2cccc(-c3cc(=O)c4c(O)c(OC)c(OC)cc4o3)c2)cc(OC)c1OC` only.
output: 77.4

input: Answer with the recorded growth of `Cc1ccc2c(n1)C(=O)C(Oc1ccc(F)cc1)=CC2=O` only.
output: 113

input: Answer with the recorded growth of `CCCCCCCSc1ccc(C(=O)O)cc1` only.
output: 105

input: Answer with the recorded growth of `Cc1cc(=O)c2cc3nc(-c4cccnc4)oc3c(Br)c2o1` only.
output: 119

input: Answer with the recorded growth of `CC(C)OC(=O)NNC(=O)c1ccncc1` only.
output: 110

input: Answer with the recorded growth of `Cc1ccc(S(=O)(=O)N(CC[C@@H]2C[C@H]2c2cc3ccccc3o2)C(=O)NC2CCCCC2)cc1` only.
output: 95.7

input: Answer with the recorded growth of `Cc1ccc(NC(=O)C(Cl)Cl)cc1` only.
output: 98.2

input: Answer with the recorded growth of O=C(/C=C/C12c3ccccc3C(c3ccccc31)C1C(=O)NC(=O)C12)c1ccccc1 (configuration not stated) only.
output: 44.7

input: Answer with the recorded growth of `COc1ccc(-c2nnc(-c3ccc4c(c3)nc(-c3ccccc3)n4C3CCCCC3)o2)cc1` only.
output: 88.5

input: Answer with the recorded growth of `CCN(CC)CCOC(=O)N1c2ccccc2Sc2ccccc21` only.
output: 101

input: Answer with the recorded growth of `COc1ccc(NC(=O)C(=O)c2c[nH]c3ccc(F)cc23)cc1` only.
output: 109

These data points were gathered from PubChem BioAssay (NCI).
